The measured values listed here are drawn from patent US8350048B2.

Consider the following compounds; for each one, report its Cyp450 inhibition: CDNA-CYP2C9-MFC (% inhibition).
target: UniProt:P11712
Sequence (P11712 whole entry): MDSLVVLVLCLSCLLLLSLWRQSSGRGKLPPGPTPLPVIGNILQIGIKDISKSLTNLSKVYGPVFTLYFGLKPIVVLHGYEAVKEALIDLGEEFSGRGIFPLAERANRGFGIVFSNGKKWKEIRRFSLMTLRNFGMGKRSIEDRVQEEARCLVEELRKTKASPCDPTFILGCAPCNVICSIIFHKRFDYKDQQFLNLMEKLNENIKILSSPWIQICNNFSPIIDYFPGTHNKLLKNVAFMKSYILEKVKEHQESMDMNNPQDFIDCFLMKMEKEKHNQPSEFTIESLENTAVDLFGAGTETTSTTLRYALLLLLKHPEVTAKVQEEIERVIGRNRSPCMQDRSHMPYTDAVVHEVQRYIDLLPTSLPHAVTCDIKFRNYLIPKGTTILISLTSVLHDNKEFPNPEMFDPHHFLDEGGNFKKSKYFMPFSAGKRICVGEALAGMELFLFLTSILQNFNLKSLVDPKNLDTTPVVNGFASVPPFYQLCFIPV
procedure-text: in vitro
Answers are plain numbers, in %.

Use these answered entries as a reference point.
structure-notation | value
CC(C)CN(C[C@@H](O)[C@H](Cc1ccccc1)NC(=O)OCc1cncs1)C(=O)c1ccc2ncn(C(C)C)c2c1 | 93
CC(C)CN(C[C@@H](O)[C@H](Cc1ccccc1)NC(=O)OCc1cncs1)C(=O)c1ccc2nc(NCCCN(C)C)oc2c1 | 28
CC(C)CN(C[C@@H](O)[C@H](Cc1ccccc1)NC(=O)OCc1cncs1)C(=O)c1ccc2nc(NC3CCN(C)CC3)oc2c1 | 12
CC(C)(C)CN(C[C@@H](O)[C@H](Cc1ccccc1)NC(=O)OCc1cncs1)C(=O)c1ccc2nc(N3CCCC3)oc2c1 | 96
CC(C)CN(C[C@@H](O)[C@H](Cc1ccccc1)NC(=O)OCc1cncs1)C(=O)c1ccc2ncsc2c1 | 99

Each of the following entries comes with a recorded value; kindly state Cyp450 inhibition: CDNA-CYP2C9-MFC (% inhibition) for each.
1. CC(C)CN(C[C@@H](O)[C@H](Cc1ccccc1)NC(=O)OCc1cncs1)C(=O)c1ccc2nc(N(C)C)oc2c1
2. CCN(C)c1nc2ccc(C(=O)N(CC(C)C)C[C@@H](O)[C@H](Cc3ccccc3)NC(=O)OCc3ccc4c(c3)OCO4)cc2o1
3. CCN(C)c1nc2ccc(C(=O)N(CC(C)C)C[C@@H](O)[C@H](Cc3ccccc3)NC(=O)OCc3cccnc3)cc2o1
4. CCN(C)c1nc2ccc(C(=O)N(CCN3CCOCC3)C[C@@H](O)[C@H](Cc3ccccc3)NC(=O)OCc3cncs3)cc2o1

Return:
[94, 84, 91, 53]

Enquiry: Tell me its Cyp450 inhibition: CDNA-CYP2C9-MFC (% inhibition) given CCNc1nc2ccc(C(=O)N(CC(C)C)C[C@@H](O)[C@H](Cc3ccccc3)NC(=O)OCc3cncs3)cc2o1 as the entry.
Return: 94
